ASSAY_OVERVIEW: Peptide titrations by SUVs followed by tryptophan fluorescence (solution-to-membrane partition)
Type: physicochemical
TEST_SETTINGS: POPC:POPG 8:2 SUVs, buffer A pH 7.4, 25 °C, tryptophan fluorescence ratio 330/370 nm; S.D. within ± 10%
Exercise: state measured Partition coefficient KX for each of the substances provided.

Field request: Partition coefficient KX | item: Ac-ASAHWGQKALQGAQAVAAAQKLVHAIALMTQ-NH2 [P454 R12K] 220 ×10^3

Using the record for Ac-ASAHWGQRALQGAQAVAAAQRLVHALALMTQ-NH2 [P454 I479L] , report its Partition coefficient KX. 700 ×10^3

Name the recorded Partition coefficient KX for Ac-ASAHWGQQALQGAQAVAAAQQLVHAIALMTQ-NH2 [P454 R12Q] . 70 ×10^3

Give its Partition coefficient KX value. Item: Ac-ASAHWGQRALQGAQAVAAAQRLVHAVALMTQ-NH2 [P454 I479V] 560 ×10^3

Can you look up the measured Partition coefficient KX of Ac-ASAHWGQRALQGAQAVAAAQRLVHAAALMTQ-NH2 [P454 I479A] for me? 330 ×10^3

What value of Partition coefficient KX has been reported for the following substance? Ac-ASAHWGQAALQGAQAVAAAQALVHAIALMTQ-NH2 [P454 R12A] 280 ×10^3

// returns reported Partition coefficient KX for input Ac-ASAHWGQQALQGAQAVAAAQRLVHAIALMTQ-NH2 [P454 R1Q] 190 ×10^3

// returns reported Partition coefficient KX for input Ac-ASAHAGQRAAQGAQAVAAAQRLVHAIALMTQ-NH2 [P454 W458A-L463A] 22 ×10^3

Need Partition coefficient KX of Ac-ASAHWGQRALQGAQAVAAAQRLVSAAALMTQ-NH2 [P454 H477S-I479A] , thanks. 105 ×10^3

* * *

ASSAY_OVERVIEW: Peptide titrations by SUVs followed by tryptophan fluorescence (solution-to-membrane partition)
Format: physicochemical
TEST_SETTINGS: ∆GKx = -RT Ln Kx; S.D. within ± 10%
MEASURED_ENDPOINT: ∆GKx for POPC POPG 8:2 (kcal/mol)
Respond numerically; units are kcal/mol and should not be typed.

# ∆GKx for POPC POPG 8:2 lookup, item Ac-ASAHWGQRALQGAQAVAAAQRLVSAIALMTQ-NH2 [P454 H477S] -7.5

// returns reported ∆GKx for POPC POPG 8:2 for input Ac-ASAHWGQRALQGAQAVAAAQRLVSAAALMTQ-NH2 [P454 H477S-I479A] -6.8

# lookup: ∆GKx for POPC POPG 8:2 of Ac-ASAHWGQRAAQGAQAVAAAQRAVSAAALMTQ-NH2 [P454 L463A-L475A-H477S-I479A] -6.2

Quick one: ∆GKx for POPC POPG 8:2 of Ac-ASAHWGQAALQGAQAVAAAQALVHAIALMTQ-NH2 [P454 R12A] ? -7.4

Request the reported ∆GKx for POPC POPG 8:2 associated with Ac-ASAHWGQKALQGAQAVAAAQKLVHAIALMTQ-NH2 [P454 R12K] -7.3

What value of ∆GKx for POPC POPG 8:2 has been reported for the following substance? Ac-ASAHWGQRALQGAQAVAAAQRLVHAAALMTQ-NH2 [P454 I479A] -7.5

Need ∆GKx for POPC POPG 8:2 of Ac-ASAHWGQQALQGAQAVAAAQRLVHAIALMTQ-NH2 [P454 R1Q] , thanks. -7.2

Data request, read-out ∆GKx for POPC POPG 8:2, for Ac-ASAHWGQRALQGAQAVAAAQQLVHAIALMTQ-NH2 [P454 R2Q] -7
